Entries and their IC50
# Tested on: Murine leukemia (L1210) cells
# assay notes: Cytostatic activity, L1210 cell proliferation
# Type: cell-based
# reported conditions: mean ± SD of three experiments; highest concentration tested 250 µM; 2 days; read-out: Toxicity (IC50) L1210

Would you please look over these solved cases?
Note to self: IC50 recorded for CN[C@H](CC(C)C)C(=O)N[C@H]1C(=O)N[C@@H](CC(N)=O)C(=O)N[C@H]2C(=O)N[C@H]3C(=O)N[C@H](C(=O)N[C@H](C(=O)NCC(=O)Nc4ccc(Cl)cc4)c4cc(O)cc(O)c4-c4cc3ccc4O)[C@H](O)c3ccc(c(Cl)c3)Oc3cc2cc(c3O[C@@H]2O[C@H](CO)[C@@H](O)[C@H](O)[C@H]2O[C@H]2C[C@](C)(N)[C@H](O)[C@H](C)O2)Oc2ccc(cc2Cl)[C@H]1O [Vanc-6] was > 250 µM

Note to self: IC50 recorded for CCCCc1ccc(NC(=O)CNC(=O)[C@H]2NC(=O)[C@H]3NC(=O)[C@H](NC(=O)[C@@H]4NC(=O)[C@H](CC(N)=O)NC(=O)[C@H](NC(=O)[C@@H](CC(C)C)NC)[C@H](O)c5ccc(c(Cl)c5)Oc5cc4cc(c5O[C@@H]4O[C@H](CO)[C@@H](O)[C@H](O)[C@H]4O[C@H]4C[C@](C)(N)[C@H](O)[C@H](C)O4)Oc4ccc(cc4Cl)[C@H]3O)c3ccc(O)c(c3)-c3c(O)cc(O)cc32)cc1 [Vanc-39] was > 250 µM

---
Note to self: IC50 recorded for CNC(CC(C)C)C(=O)NC1C(=O)NC(CC(N)=O)C(=O)NC2C(=O)NC3C(=O)NC(C(=O)NC(C(=O)NCC(=O)NC4c5ccccc5-c5ccccc54)c4cc(O)cc(O)c4-c4cc3ccc4O)C(O)c3ccc(c(Cl)c3)Oc3cc2cc(c3OC2OC(CO)C(O)C(O)C2OC2CC(C)(N)C(O)C(C)O2)Oc2ccc(cc2Cl)C1O (stereo not drawn) [Vanc-90] was 175 µM
